- Tested on: 485176-168-R4-J1-PDC complex spheroid growth
- RUN DESCRIPTION: Anticancer human tumor 485176-168-R4-J1-PDC patient-derived pancreatic adenocarcinoma cell line growth inhibition [RAS]
- MEASUREMENT CONTEXT: second compound 0.0949 µM; first compound 0.316 µM; stronger effect = lower value
Label key: satisfied means viability, T/C under 40%; not satisfied means viability, T/C of 40% or more.

Reference set, count: 4
COMPOUND: CCN1CCN(Cc2ccc(Nc3ncc(F)c(-c4cc(F)c5nc(C)n(C(C)C)c5c4)n3)nc2)CC1 + CCn1c(-c2cc(N3CCN(C)CC3)cnc2C(C)OC)c2c3cc(ccc31)-c1csc(n1)CC(NC(=O)C1CC1C)C(=O)N1CCCC(N1)C(=O)OCC(C)(C)C2
SYSTEM: 485176-168-R4-J1-PDC complex spheroid growth
GROUP LABEL: not satisfied

COMPOUND: CCC(CC)c1cc(NC2CCC(N)C2)n2nccc2n1 (stereo not drawn) + CCn1c(-c2cccnc2C(C)OC)c2c3cc(ccc31)N1CCOC(CC(NC(=O)C(C(C)C)N(C)C(=O)C3(F)CCN(C(=O)C#CC(C)(C)N(C)C)CC3)C(=O)N3CCCC(N3)C(=O)OCC(C)(C)C2)C1
SYSTEM: 485176-168-R4-J1-PDC complex spheroid growth
GROUP LABEL: not satisfied

COMPOUND: CC(=O)OC12COC1CC(O)C1(C)C(=O)C(O)C3=C(C)C(OC(=O)C(O)C(NC(=O)OC(C)(C)C)c4ccccc4)CC(O)(C(OC(=O)c4ccccc4)C21)C3(C)C (stereo not drawn) + CCn1c(-c2cc(N3CCN(C)CC3)cnc2C(C)OC)c2c3cc(ccc31)-c1csc(n1)CC(NC(=O)C1CC1C)C(=O)N1CCCC(N1)C(=O)OCC(C)(C)C2
SYSTEM: 485176-168-R4-J1-PDC complex spheroid growth
GROUP LABEL: satisfied

COMPOUND: O=C(c1ccc(F)c(F)c1Nc1ccc(I)cc1F)N1CC(O)([C@@H]2CCCCN2)C1 + CCn1c(-c2cccnc2C(C)OC)c2c3cc(ccc31)N1CCOC(CC(NC(=O)C(C(C)C)N(C)C(=O)C3(F)CCN(C(=O)C#CC(C)(C)N(C)C)CC3)C(=O)N3CCCC(N3)C(=O)OCC(C)(C)C2)C1
SYSTEM: 485176-168-R4-J1-PDC complex spheroid growth
GROUP LABEL: not satisfied

Please determine if Nc1ccn(C2OC(CO)C(O)C2(F)F)c(=O)n1 (stereo not drawn) + CCn1c(-c2cc(N3CCN(C)CC3)cnc2C(C)OC)c2c3cc(ccc31)-c1csc(n1)CC(NC(=O)C1CC1C)C(=O)N1CCCC(N1)C(=O)OCC(C)(C)C2 is below 40% in terms of viability, T/C.
satisfied

Lab note: viability, T/C threshold 40%. Does this compound come in strictly under it? C=CC(=O)N1CCN(c2nc(OCC3CCCN3C)nc3c(F)c(-c4nc(N)cc(C)c4C(F)(F)F)c(Cl)cc23)C(C)C1 (stereo not drawn) + CCn1c(-c2cccnc2C(C)OC)c2c3cc(ccc31)N1CCOC(CC(NC(=O)C(C(C)C)N(C)C(=O)C3(F)CCN(C(=O)C#CC(C)(C)N(C)C)CC3)C(=O)N3CCCC(N3)C(=O)OCC(C)(C)C2)C1
not satisfied

Consider O=C(c1ccc(F)c(F)c1Nc1ccc(I)cc1F)N1CC(O)([C@@H]2CCCCN2)C1 + CCn1c(-c2cc(N3CCN(C)CC3)cnc2C(C)OC)c2c3cc(ccc31)-c1csc(n1)CC(NC(=O)C1CC1C)C(=O)N1CCCC(N1)C(=O)OCC(C)(C)C2 . Does its viability, T/C lie strictly below 40%?
satisfied

# TODO verify viability, T/C < 40% strictly for this compound: C=CC(=O)N1CCN(c2nc(OCC3CCCN3C)nc3c(F)c(-c4nc(N)cc(C)c4C(F)(F)F)c(Cl)cc23)C(C)C1 (stereo not drawn) + CCn1c(-c2cc(N3CCN(C)CC3)cnc2C(C)OC)c2c3cc(ccc31)-c1csc(n1)CC(NC(=O)C1CC1C)C(=O)N1CCCC(N1)C(=O)OCC(C)(C)C2
not satisfied

---

- System: 485176-168-R4-J1-PDC complex spheroid growth
- RUN DESCRIPTION: Anticancer human tumor 485176-168-R4-J1-PDC cell line growth inhibition [RAS];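 note: spheroids exposed to compounds for seven days before readout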
- MEASUREMENT CONTEXT: second compound 0.316 µM; first compound 0.0316 µM; stronger effect = lower value
TRUE if viability, T/C is below 80%. FALSE if not; exact matches included in FALSE.

Please review the following examples before continuing.
MOLECULE: CCN1CCN(Cc2ccc(Nc3ncc(F)c(-c4cc(F)c5nc(C)n(C(C)C)c5c4)n3)nc2)CC1 + C#Cc1c(F)ccc2cc(O)cc(-c3ncc4c(N5CC6CCC(C5)N6)nc(OCC56CCCN5CC(F)C6)nc4c3F)c12
GROUP LABEL: FALSE

MOLECULE: O=C(c1ccc(F)c(F)c1Nc1ccc(I)cc1F)N1CC(O)([C@@H]2CCCCN2)C1 + C#Cc1c(F)ccc2cc(O)cc(-c3ncc4c(N5CC6CCC(C5)N6)nc(OCC56CCCN5CC(F)C6)nc4c3F)c12
GROUP LABEL: TRUE

MOLECULE: C=CC(=O)Nc1cc(Nc2nccc(-c3cn(C)c4ccccc34)n2)c(OC)cc1N(C)CCN(C)C + C=CC(=O)N1CCN(c2nc(OCC3CCCN3C)nc3c(F)c(-c4nc(N)cc(C)c4C(F)(F)F)c(Cl)cc23)C(C)C1
GROUP LABEL: FALSE

Here's an entry: Nc1ccn(C2OC(CO)C(O)C2(F)F)c(=O)n1 (configuration not stated) + C=CC(=O)N1CCN(c2nc(OCC3CCCN3C)nc3c(F)c(-c4nc(N)cc(C)c4C(F)(F)F)c(Cl)cc23)C(C)C1 . Is its viability, T/C below 80%?
TRUE

Please check: viability, T/C for CCC(CC)c1cc(NC2CCC(N)C2)n2nccc2n1 (configuration not stated) + C=CC(=O)N1CCN(c2nc(OCC3CCCN3C)nc3c(F)c(-c4nc(N)cc(C)c4C(F)(F)F)c(Cl)cc23)C(C)C1 , strictly under 80% or not?
FALSE

Threshold test, viability, T/C < 80%: CC(=O)OC12COC1CC(O)C1(C)C(=O)C(O)C3=C(C)C(OC(=O)C(O)C(NC(=O)OC(C)(C)C)c4ccccc4)CC(O)(C(OC(=O)c4ccccc4)C21)C3(C)C (configuration not stated) + C#Cc1c(F)ccc2cc(O)cc(-c3ncc4c(N5CC6CCC(C5)N6)nc(OCC56CCCN5CC(F)C6)nc4c3F)c12
TRUE

Dear colleague, could you confirm whether viability, T/C of CCN1CCN(Cc2ccc(Nc3ncc(F)c(-c4cc(F)c5nc(C)n(C(C)C)c5c4)n3)nc2)CC1 + C=CC(=O)N1CCN(c2nc(OCC3CCCN3C)nc3c(F)c(-c4nc(N)cc(C)c4C(F)(F)F)c(Cl)cc23)C(C)C1 falls below 80%? Thanks.
TRUE

---

- System: 485176-168-R4-J1-PDC complex spheroid growth
- RUN DESCRIPTION: Anticancer human tumor 485176-168-R4-J1-PDC cell line growth inhibition [RAS];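 note: spheroids exposed to compounds for seven days before readout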
- MEASUREMENT CONTEXT: curve of first compound; second compound 0.000949 µM
PARAMETER: IC50

COMPOUND: Nc1ccn(C2OC(CO)C(O)C2(F)F)c(=O)n1 (configuration not stated) + CCn1c(-c2cccnc2C(C)OC)c2c3cc(ccc31)N1CCOC(CC(NC(=O)C(C(C)C)N(C)C(=O)C3(F)CCN(C(=O)C#CC(C)(C)N(C)C)CC3)C(=O)N3CCCC(N3)C(=O)OCC(C)(C)C2)C1
PARAMETER: IC50
RESULT: 0.0167 µM

Record CC(C)NCC(C(=O)N1CCN(c2ncnc3c2C(C)CC3O)CC1)c1ccc(Cl)cc1 (configuration not stated) + CCn1c(-c2cccnc2C(C)OC)c2c3cc(ccc31)N1CCOC(CC(NC(=O)C(C(C)C)N(C)C(=O)C3(F)CCN(C(=O)C#CC(C)(C)N(C)C)CC3)C(=O)N3CCCC(N3)C(=O)OCC(C)(C)C2)C1 , field IC50: 2.21 µM

// CC(Nc1ccc2c(c1)OCCn1cc(N3C(=O)OCC3C(F)F)nc1-2)C(N)=O (configuration not stated) + CCn1c(-c2cccnc2C(C)OC)c2c3cc(ccc31)N1CCOC(CC(NC(=O)C(C(C)C)N(C)C(=O)C3(F)CCN(C(=O)C#CC(C)(C)N(C)C)CC3)C(=O)N3CCCC(N3)C(=O)OCC(C)(C)C2)C1 : IC50 value = 8.61 µM

The reported IC50 of the compound Cc1nc(N2CCC3(CC2)COC(C)C3N)c(CO)nc1Sc1ccnc(N)c1Cl (configuration not stated) + CCn1c(-c2cccnc2C(C)OC)c2c3cc(ccc31)N1CCOC(CC(NC(=O)C(C(C)C)N(C)C(=O)C3(F)CCN(C(=O)C#CC(C)(C)N(C)C)CC3)C(=O)N3CCCC(N3)C(=O)OCC(C)(C)C2)C1 was > 10 µM

# IC50 (compound: C=CC(=O)N1CCN(c2nc(OCC3CCCN3C)nc3c(F)c(-c4nc(N)cc(C)c4C(F)(F)F)c(Cl)cc23)C(C)C1 (configuration not stated) + CCn1c(-c2cccnc2C(C)OC)c2c3cc(ccc31)N1CCOC(CC(NC(=O)C(C(C)C)N(C)C(=O)C3(F)CCN(C(=O)C#CC(C)(C)N(C)C)CC3)C(=O)N3CCCC(N3)C(=O)OCC(C)(C)C2)C1 ) is > 1 µM

IC50 in this record for C[C@@H](NC(=O)c1ncnc(N)c1Cl)c1ncc(C(=O)Nc2cc(C(F)(F)F)c(Cl)cn2)s1 + CCn1c(-c2cccnc2C(C)OC)c2c3cc(ccc31)N1CCOC(CC(NC(=O)C(C(C)C)N(C)C(=O)C3(F)CCN(C(=O)C#CC(C)(C)N(C)C)CC3)C(=O)N3CCCC(N3)C(=O)OCC(C)(C)C2)C1 : > 10 µM

Query C[C@@H](NC(=O)c1ncnc(N)c1Cl)c1ncc(C(=O)Nc2cc(C(F)(F)F)c(Cl)cn2)s1 + CCn1c(-c2cc(N3CCN(C)CC3)cnc2C(C)OC)c2c3cc(ccc31)-c1csc(n1)CC(NC(=O)C1CC1C)C(=O)N1CCCC(N1)C(=O)OCC(C)(C)C2 yields IC50 of > 10 µM
